Data credit: ChEMBL document CHEMBL1136665

PROTOCOL SUMMARY: Aqueous solubility was determined
Type: physicochemical
Provide the reported solubility of each item.

Challenge: Tell me the measured solubility of CC(=O)/C(=C(\C(=O)[O-])c1ccc(Cl)cc1)c1ccc(S(C)(=O)=O)cc1.[Na+] , please.
Response given: > 100 mg/mL

Challenge: Quick one: CC(=O)/C(=C(\C(=O)[O-])c1ccccc1)c1ccc(S(C)(=O)=O)cc1.[Na+]
Response given: > 100 mg/mL

###

Provide the reported log10(IC50) of each item.
TARGET: Prostaglandin G/H synthase 2 (Homo sapiens, UniProt P35354)
Sequence (P35354 whole entry): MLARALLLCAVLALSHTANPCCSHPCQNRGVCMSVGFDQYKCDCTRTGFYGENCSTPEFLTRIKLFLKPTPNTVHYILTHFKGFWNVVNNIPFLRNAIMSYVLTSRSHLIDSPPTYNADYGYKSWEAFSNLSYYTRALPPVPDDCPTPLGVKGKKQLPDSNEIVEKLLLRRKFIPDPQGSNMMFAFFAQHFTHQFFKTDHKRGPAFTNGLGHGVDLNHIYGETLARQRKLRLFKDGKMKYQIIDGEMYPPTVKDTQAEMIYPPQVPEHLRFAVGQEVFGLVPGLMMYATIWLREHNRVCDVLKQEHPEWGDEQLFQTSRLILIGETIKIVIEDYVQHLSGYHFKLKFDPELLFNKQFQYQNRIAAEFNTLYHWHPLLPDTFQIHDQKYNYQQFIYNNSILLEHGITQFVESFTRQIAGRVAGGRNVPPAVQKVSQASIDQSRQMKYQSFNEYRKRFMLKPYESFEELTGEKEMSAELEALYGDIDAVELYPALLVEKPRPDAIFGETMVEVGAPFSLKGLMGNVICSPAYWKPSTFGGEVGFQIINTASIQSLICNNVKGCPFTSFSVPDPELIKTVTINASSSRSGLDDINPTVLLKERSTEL
Scale: decimal log of IC50, IC50 in µM.

Challenge: Tell me the measured log10(IC50) of CC1(OCC(F)(F)F)OC(=O)C(c2ccc(F)cc2)=C1c1ccc(S(C)(=O)=O)cc1 (centres undefined) , please.
Response given: -0.40

Challenge: Quick one: CC1(O)OC(=O)C(c2cccc(F)c2)=C1c1ccc(S(C)(=O)=O)cc1 (centres undefined)
Response given: 1.11

Challenge: Quick one: CC1(O)OC(=O)C(c2ccc3ccccc3c2)=C1c1ccc(S(C)(=O)=O)cc1 (centres undefined)
Response given: 0.51

Challenge: Quick one: CC1(O)OC(=O)C(c2ccccc2)=C1c1ccc(S(C)(=O)=O)cc1 (centres undefined)
Response given: 0.08

Challenge: Quick one: CC1(O)OC(=O)C(c2cc(F)cc(F)c2)=C1c1ccc(S(C)(=O)=O)cc1 (centres undefined)
Response given: 1.13

Challenge: Quick one: CCOC1(C)OC(=O)C(c2ccc(F)cc2)=C1c1ccc(S(C)(=O)=O)cc1 (centres undefined)
Response given: -0.30

Challenge: Quick one: CC1(O)OC(=O)C(c2ccc(F)c(F)c2)=C1c1ccc(S(C)(=O)=O)cc1 (centres undefined)
Response given: 0.80

Challenge: Quick one: CC1(O)OC(=O)C(c2ccc(Br)cc2)=C1c1ccc(S(C)(=O)=O)cc1 (centres undefined)
Response given: 0.23

Challenge: Quick one: CC1(O)OC(=O)C(c2ccsc2)=C1c1ccc(S(C)(=O)=O)cc1 (centres undefined)
Response given: 1.38

Challenge: Quick one: CSc1ccc(C2=C(c3ccc(S(C)(=O)=O)cc3)C(C)(O)OC2=O)cc1 (centres undefined)
Response given: 0.23

Challenge: Quick one: CC1(O)OC(=O)C(c2ccc(F)c(Cl)c2)=C1c1ccc(S(C)(=O)=O)cc1 (centres undefined)
Response given: 0.34

Challenge: Quick one: CC(C)c1ccc(C2=C(c3ccc(S(C)(=O)=O)cc3)C(C)(O)OC2=O)cc1 (centres undefined)
Response given: 0.63

Challenge: Quick one: CC1(O)OC(=O)C(c2ccc(Cl)c(Cl)c2)=C1c1ccc(S(C)(=O)=O)cc1 (centres undefined)
Response given: -0.07

Challenge: Quick one: CC(C)OC1(C)OC(=O)C(c2ccc(F)cc2)=C1c1ccc(S(C)(=O)=O)cc1 (centres undefined)
Response given: -0.10

Challenge: Quick one: CC1(O)OC(=O)C(c2ccc(Cl)cc2Cl)=C1c1ccc(S(C)(=O)=O)cc1 (centres undefined)
Response given: 0.88

###

Provide the reported pIC50 of each item.
TARGET: Prostaglandin G/H synthase 1 (Homo sapiens)
Sequence (P23219 whole entry): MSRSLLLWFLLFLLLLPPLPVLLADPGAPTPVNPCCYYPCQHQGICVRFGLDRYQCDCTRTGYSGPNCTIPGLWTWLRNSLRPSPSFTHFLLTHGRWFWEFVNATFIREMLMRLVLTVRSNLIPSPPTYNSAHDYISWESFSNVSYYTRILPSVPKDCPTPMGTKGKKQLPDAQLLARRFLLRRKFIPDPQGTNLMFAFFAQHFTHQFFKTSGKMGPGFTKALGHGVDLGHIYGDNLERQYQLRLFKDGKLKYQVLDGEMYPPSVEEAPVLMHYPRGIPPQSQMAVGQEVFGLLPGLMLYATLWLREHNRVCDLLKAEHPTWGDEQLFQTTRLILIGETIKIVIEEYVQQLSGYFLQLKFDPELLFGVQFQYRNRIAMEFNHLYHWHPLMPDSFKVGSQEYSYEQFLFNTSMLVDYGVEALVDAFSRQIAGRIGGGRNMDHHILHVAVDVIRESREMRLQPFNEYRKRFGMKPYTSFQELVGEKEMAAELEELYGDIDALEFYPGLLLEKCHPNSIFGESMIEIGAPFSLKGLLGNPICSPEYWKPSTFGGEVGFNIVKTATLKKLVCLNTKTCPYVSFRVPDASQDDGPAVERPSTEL
Format: tissue-based, Blood
Description: Inhibitory concentration was measured against Prostaglandin G/H synthase 1 in human whole blood
Kindly note that pIC50 refers to -log10 of the concentration in mol/L and answer with the value alone.

Challenge: Can you look up pIC50 on Prostaglandin G/H synthase 1 (Homo sapiens) for CC1(O)OC(=O)C(c2ccc(Cl)c(Cl)c2)=C1c1ccc(S(C)(=O)=O)cc1 (configuration not stated) ?
Response given: 4.12

Challenge: Quick one: COC1(C)OC(=O)C(c2ccc(F)cc2)=C1c1ccc(S(C)(=O)=O)cc1 (configuration not stated)
Response given: 4.24

Challenge: Quick one: CSc1ccc(C2=C(c3ccc(S(C)(=O)=O)cc3)C(C)(O)OC2=O)cc1 (configuration not stated)
Response given: 4.42
